# target-entity: pooled human IgG
Could you mark each record y if its Enzyme Activity Endpoint Assay: scIgG falls strictly under 20 ng/µL, and n if it equals or exceeds it?

Some solved cases for reference:
PRT-17 (protein) MANQEIRYSEVTPYHITSVWTKGVTPPTNFTQGEDVFHAPYKANQGWYDITKTFNGKDDLLCGAATAGNMLHWWFDQNKEEIERYLKEHPEKQKINFNGEQMFDVKEAIDTKGSQTDSKLFNYFKDKAFPYLSTKHLGVFPDHVLDMFINGYRLSLTNHGPTPVKEQSKDPRGGIFDAVFTRGDQSKLLTSRHDFKEKNLKEISDLIKKELTEGKALGLSHTYANVRINHVINLWGADFDSEGNLEAIYVTDSDSNASIGMKKYFVGVNSAGKVAISAKEIKGDNIGAQVLGLFTLSTGQDIWEKTN    y
PRT-15 (protein) MANQEIRYSEVTPYTITSVWTKGVTPPTNFTQGEDVFHAPYVANQGWYDITKTFNGKDDLLCGAATAGNMLHWWFDQNKDEIERYLKEHPEKQKINFNGEQMFDVKEAIDTKDSQTDSKLFEYFKDKAFPYLSTKHLGVFPDHVIDMFINGYRLSLTNHGPTPVKRGSKDPRGGIFDAVFTRGDQSKLLTSRHDFKEKNLNEISDLIKQELTEGKALGLSHTYANVRINHVINLWGADFNSNGNLKAIYVTDSDSNASIGMKKYFVGVNKAGKVAISAKEIKGDNIGAQVLGLFTLSTGQDIWEQTN    y
PRT-32 (protein) MANQEIRYSEVTPYHVTSVWTKGVTPPANFTQGEDVFHAPYVANQGWYDITKTFNGKDDLLCGAATAGNMLHWWFDQNKDQIKRYLEEHPEKQKINFNGEQMFDVKEAIDTKNHQLDSKLFEYFKEKAFPYLSTKHLGVFPDHVIDMFINGYRLSLTNHGPTPVKEGSKDPRGGIFDAVFTRGDQSKLLTSRHDFKEKNLKEISDLIKKELTEGKALGLSHTYANVRINHVINLWGADFDSNGNLKAIYVTDSDSNASIGMKKYFVGVNSAGKVAISAKEIKEDNIGAQVLGLFTLSTGQDIWNQTN    y
PRT-535 (protein) MANQEIRYSGDSEWANKKVWVYGITPPEEKAWFYSTYYLPWKKEYGWYDCNKRNPTADGMMCWAATASNLMHWWIAQNKEYIDLYGDKYKGPDKINFNGEQMFDVKEYIDPLDKPQESDIFQCFIDKAFADLSTKHEAGKGDEGINWFIHGIIPSYPAHGPTPVKLRYPYNPAGYFKDVFPRGDGVVLLGNNGDFKELGKERFNETIKDALANKKGIGLSIGPVNVRSSHVVTMWGAEFDENGDVSYIYMADNNDRWGVGCIRYQIVYVEGGTYTCYKTEIIGSDRPIPINRLVTLELGEEYWKQTNLEHHHHHH    y
PRT-7 (protein) MANQEIRYSEETPYHVTSVWTKGVTPPANFTQGEDVFHAPYVANQGWYDITKTFNGKDDLLCGAATAGNMLHWWFDQNKDQIERYLKKHPEKQKINFNGEQMFDVKEAIDTKDSQTDSKLFEYFKEKAFPYLSTKHLGVFPDHVIDMFINGYRLSLTNHGPTPVKEGSKDPRGGIFDAVFTRGDQSKLLTSRHDFKEKNLKEISDLIKKELTEGKALGLSHTYANVRINHVINLWGADFDSNGNLKAIYVTDSDSNASIGMKKYFVGVNSAGKVAISAKEIKEDNIGAQVLGLFTLSTGQDIWEQTN    y
PRT-53 (protein) MANQEIRYSEVTPYHVTSVWTKGVTPPANFTQGEDVFHAPYVANQGWYDITKTFNGKDDLLCGAATAGNMLHWWFDQNKDQIDRYLEEHPEKQKINFNGEQMFDVKEAIDTKNDQLDSKLFEYFKEKAFPYLSTKHLGVFPDLVIDMFINGYRLSLTNHGPTPVKEGSKDPRGGIFDAVFTRGDQSKLLTSRHDFKEKNLKEISDLIKKELTEGKALGLSHTYANVRINHVINLWGADFDSNGNLKAIYVTDSDSNASIGMKKYFVGVNSAGKVAISAKEIKEDNIGAQVLGLFTLSTGQDSWNQTN    n

# input Report whether reported Enzyme Activity Endpoint Assay: scIgG is lower than 20 ng/µL (strictly) for PRT-552 (protein) MANQEIRYSEETPKTITSVWTKGVTPPTDFIQNEDVLHAPYIANQGWYDITKTFNGKDDLLCGAATAGNMLHWWFDQNKEEIENYLKKHPEKQKINFNGEQMFDVKEAIDTKDSQTDSALFEYFKDKAFPYLSTKHLGVFPDHVIDMFINGYRLSLTNHGPTPVKRGTKDPRGGIFDAVFTRGDQSKLLTARHDFKEKTLNEISDLIKQELTEGKALGLSHTYANVRINHVINLWGADFNSEGNLEAIYVTDSDSNASIGMKKYYVGVNAAGKVAISAKEIEGDNIGAQVLGLFTLSTGQDIWNQTNLEHHHHHH
# output n

# input Report whether reported Enzyme Activity Endpoint Assay: scIgG is lower than 20 ng/µL (strictly) for PRT-44 (protein) MANQEIRYSEVTPYHVTSVWTKGVTPPANFTQGEDVFHAPYVANQGWYDITKTFNGGDDLLCGAATAGNMLHWWFDQNKDQIDRYLEEHPEKQKINFNGEQMFDVKEAIDTKNSQTDSKLFEYFKEKAFPYLSTKHLGVFPDLVLDMFINGYRLSLTNHGPTPVKEGSKDPRGGFFDDVFTRGDQSKLLTSRHDFKEKNLKEISDLIKKELTEGKALGLSHTYANVRINHVINLWGADFDSNGNLKAIYVTDSDSNASIGMKKYFVGVNSAGKVAISAKEIKEDNIGAQVLGLFTLSTGQDSWNQTN
# output n
